tested on: BT-549 breast; test: NCI tumour cell line growth inhibition, 48 h; in the data active = GI50 below about 0.43 µM; inactive = the rest
I would appreciate it if you answered using one of these outcomes: yes (active), no (inactive)

Take a look at these entries with their results.
CN1CCN(Cc2ccc(NC(=O)c3cncc(C#Cc4c(N)ncc5ccccc45)c3)cc2C(F)(F)F)CC1    no
CCCCCn1sc(=O)n(Cc2ccc(CNC(=O)C(C)c3ccc(CC(C)C)cc3)cc2)c1=O (centres undefined)    no
Cc1cnc(C(=O)Nc2nc3ccc(S(=O)(=O)Nc4ccc(C(C)(C)C)cc4)cc3[nH]2)cn1    no
CCc1ccc([OH2+])c(C(=O)[O-])c1.CCc1ccc([OH2+])c(C(=O)[O-])c1.CCc1ccc([OH2+])c(C(=O)[O-])c1.CCc1ccc([OH2+])c(C(=O)[O-])c1.[Cu+2].[Cu+2]    no

Call for entry O=C(NCCN1CCOCC1)c1cc2c(Oc3ccc(NC(=O)C4(C(=O)Nc5ccc(F)cc5)CC4)cc3)ccnc2[nH]1 : no

Hi team, can someone confirm the assay call for COc1cc(/C=N/NC(=O)c2cnn3c2NC(c2ccccc2)C3)ccc1OCc1ccccc1 (centres undefined) ? no

Please share the test call associated with COc1cc(/C=N\Nc2ccccc2)ccc1OC(=O)c1ccccc1 . no

Test call, this compound: COc1cc(OC)c(/C=C/S(=O)(=O)Cc2ccc(OC)c(N)n2)c(OC)c1 yes

Please indicate how the test categorized N#Cc1ccc2c(-c3ccnc(NC4CC4)n3)c(-c3ccc(F)cc3)nn2c1 . no

---

tested on: MDA-MB-435; experiment: NCI tumour cell line growth inhibition, 48 h
Experimental endpoint: TGI (µM)
Only the number, expressed in µM, is required.

Example entries and their recorded answers appear below.
Clc1ccc(Cc2nc3cc4ccccc4cc3[nH]2)cc1Cl    49.3
COc1cc(F)c(F)c(Nc2ccc(I)cc2F)c1NS(=O)(=O)C1(CC(O)CO)CC1 (centres undefined)    22.3
Nc1nc(SCC#CCCl)c2[nH]cnc2n1    18.6
CC(C)C1OC(=O)C(Cc2ccccc2)N(C)C(=O)C(C(C)C)OC(=O)C(Cc2ccccc2)N(C)C(=O)C(C(C)C)OC(=O)C(Cc2ccccc2)N(C)C1=O (centres undefined)    1.41
COC(=O)c1sc2c(c1C(=O)OC)C(=Nc1ccc(OC)cc1)SC2=Nc1ccc(OC)cc1    1.94

Report TGI, nothing else, for this compound: CN1CCN(Cc2ccc(NC(=O)c3cncc(C#Cc4c(N)ncc5ccccc45)c3)cc2C(F)(F)F)CC1 0.968

---

tested on: EKVX NSCLC; assay: NCI tumour cell line growth inhibition, 48 h
Experimental endpoint: TGI

Field: example entries. Status: answers known.
O=C1N[C@@H]([C@H]2CC[C@H](Cl)CN2)C(=O)N[C@H]1[C@H]1CC[C@H](Cl)CN1    19.2 µM
CCOC(=O)/C(C(=O)c1ccc[nH]1)=C1/CCCN1C    > 100 µM
Cc1c2ccncc2c(C)c2c1[nH]c1ccc(O)cc12    0.273 mg/L
CN(N=O)c1ccc(/C=C/c2ccnc3ccccc23)cc1    > 100 µM

For the molecule CC1(C)OCC(/C=C\C(O)CC2(C)OCCO2)CO1 (stereo unspecified) , give its measured TGI value. > 100 µM

Identify TGI associated with the molecule O=C1c2cccc3cc([N+](=O)[O-])cc(c23)C(=O)N1c1ccc(OCCN2CCCC2)cc1 71.3 µM

Fill in TGI for record Clc1ccc(Cc2nc3cc4ccccc4cc3[nH]2)cc1Cl 78.2 µM

Check the records and state TGI for NN=C1/C(=C\c2ccccc2)CCC/C1=C/c1ccccc1 89.1 µM

Tell me its TGI given CN(C)NC(=O)NC12CC3CC(CC(C3)C1)C2 as the entry. > 100 µM

Please look at this molecule and report its TGI: COc1cc(F)c(F)c(Nc2ccc(I)cc2F)c1NS(=O)(=O)C1(CC(O)CO)CC1 (stereo unspecified) 57.2 µM

Identify TGI associated with the molecule CCOC(=O)Nc1cc2c(c(N)n1)N=C(c1ccc(Cl)cc1Cl)CN2 31.9 µM

Return TGI (reported value) for this molecule: CC/C(CC(=O)CCC(=O)Nc1ccc(C)c(C)c1)=N\NC(=O)c1cc2ccccc2cc1O 88.3 µM

Supply TGI value. Item: COc1ccc(C(CC(=O)c2cccs2)C(=O)c2ccc3c(c2)OCO3)cc1 (stereo unspecified) > 100 µM

Please give the documented TGI of O=C1OC(c2ccccc2)=N/C1=C\c1ccccc1 > 100 µM

---

test system: NCI-H23 lung; test: NCI tumour cell line growth inhibition, 48 h; in the data active = GI50 below about 0.43 µM; inactive = the rest
Allowed answers: true for active, false for inactive

State the result this test recorded for O=C1c2ccccc2-c2cn(Cc3ccccc3)c3cccc(c23)C1c1cccnc1 (stereo not given) . false

Test call for this molecule, please: COc1cc(F)c(F)c(Nc2ccc(I)cc2F)c1NS(=O)(=O)C1(CC(O)CO)CC1 (stereo not given) false

What is the recorded call for this molecule in the test? CCc1ccc([OH2+])c(C(=O)[O-])c1.CCc1ccc([OH2+])c(C(=O)[O-])c1.CCc1ccc([OH2+])c(C(=O)[O-])c1.CCc1ccc([OH2+])c(C(=O)[O-])c1.[Cu+2].[Cu+2] false

For O=C(/C=C/c1ccco1)Nc1ncc(Cc2cc(Cl)ccc2Cl)s1 , which call appears in the assay record? true

// outcome(item) with item = CN1CCN(Cc2ccc(NC(=O)c3cncc(C#Cc4c(N)ncc5ccccc45)c3)cc2C(F)(F)F)CC1 false

---

Listed molecules paired with reported TGI
test system: A498 renal; assay: NCI tumour cell line growth inhibition, 48 h

Study these solved cases before continuing.
CC1=Nc2ccccc2S/C1=C1/C=NC(=NC#N)N=C1C(=O)Nc1cccc(Cl)c1    > 100 µM
COc1cc2c3c(c4cc(OC)c(OC)cc4c2cc1OC)CN1CCC[C@H]1C3    0.0368 µM
OC[C@H]1C[C@](O)(c2ccccc2Cl)[C@@H](c2ccccc2Cl)O1    59.2 µM
O=C1CCNC/C1=C\c1ccccc1    > 100 µM

Next, consider the following molecule.
Please give the documented TGI of COc1cc(C(=O)/C=C/c2c[nH]c3ccccc23)cc(OC)c1OC 0.0414 µM

---

tested on: SK-OV-3 ovarian; assay: NCI tumour cell line growth inhibition, 48 h
Experimental endpoint: TGI

Example cases with answers are listed next.
CNC(=O)OC1/C(C)=C\C(C)C(O)C(OC)CC(C)CC2=C(OC)C(=O)C=C(C2=O)N(C)C(=O)/C(C)=C/C=C\C1OC (stereo unspecified)    30 µM
CC1(C)C2CC(=O)C1(C)C(OCc1ccccc1)C2Br (stereo unspecified)    > 100 µM
COc1cc2c(c(O)c1OC)C(O)C1CCC(=O)N1C2c1ccc2c(c1)OCO2 (stereo unspecified)    > 100 µM
O=C1c2ccc3c4c(ccc(c24)C(=O)N1CCCCO)C(=O)N(CCCCO)C3=O    17.8 µM
O=S(c1ccc(O)cc1)c1ccc(O)cc1    > 100 µM

Consider the molecule N#Cc1ccc2c(-c3ccnc(NC4CC4)n3)c(-c3ccc(F)cc3)nn2c1 and give its recorded TGI. > 25 µM

---

tested on: CAKI-1 renal; assay: NCI tumour cell line growth inhibition, 48 h; in the data active = GI50 below about 0.43 µM; inactive = the rest
Write down the outcome that applies. Available outcomes: 1.0 = active, 0.0 = inactive

Cc1cnc(C(=O)Nc2nc3ccc(S(=O)(=O)Nc4ccc(C(C)(C)C)cc4)cc3[nH]2)cn1    0.0
COc1ccc(/C=C\c2cc(OC)c(OC)c(OC)c2)cc1NC(=O)/C=C/c1cc(OC)c(OC)c(OC)c1    0.0

Next molecule, please.
How was COc1cc(C2c3cc4c(cc3[C@@H](Nc3ccc(F)cc3)C3COC(=O)[C@H]23)OCO4)cc(OC)c1O (stereo partly drawn) classified in this test? 1.0

---

system: CAKI-1 renal; assay: NCI tumour cell line growth inhibition, 48 h
Listing: GI50 of selected compounds

O=C(O)CCCCCNCc1cc2cc3c(cc2c2cc(OCc4ccccc4)ccc12)OCO3    3170 nM

Entry COc1cc(/C=N/NC(=O)c2cnn3c2NC(c2ccccc2)C3)ccc1OCc1ccccc1 (centres undefined) needs its GI50 filled in; supply it. 597 nM

Using known records, supply GI50 for COC(=O)c1sc(-n2cnc3cc(OC)c(OC)cc32)cc1OCc1ccccc1C(F)(F)F > 25000 nM

Using the record for CCCCCCCCCC(=O)Oc1ccc(/C(=C(/C)c2ccccc2)c2ccc(OCCN3CCCC3)cc2)cc1 , state its measured GI50. 6770 nM

---

Parameter TGI: see the listing below.
system: 786-0 renal; experiment: NCI tumour cell line growth inhibition, 48 h

Supply TGI value. Item: O=C1CC2(CCN(Cc3ccccc3)CC2)C(=O)N1N1CCCCC1 > 100 µM

Identify the reported TGI for the following entry. C(=C\c1ccc2ccccc2c1Nc1ccccc1)/c1ccccc1 33.9 µM

Read off the recorded TGI for O=C1OC(c2ccccc2)=N/C1=C\c1ccccc1 > 100 µM

Give reported TGI value for COC(=O)CC(=O)OC1C[C@@H]2CCC3C(C)(C)CCC[C@]3(C)C23CC[C@@]1(C)C3 (stereo not given in full) 29.9 µM

Consider the compound CN(CCNC(=O)c1nn(C)c2c1Cc1ccccc1-2)CCNC(=O)c1nn(C)c2c1Cc1ccccc1-2 . State its measured TGI. 27.7 µM

Quick one: give measured TGI for Cc1nc2nnc(CCCCCCCCc3nnc4nc(C)[nH]n34)n2[nH]1 > 100 µM
